Measurement Target: SfurOBP11 (Sogatella furcifera, UniProt V5T6E3)
Sequence (V5T6E3 entry or part of it): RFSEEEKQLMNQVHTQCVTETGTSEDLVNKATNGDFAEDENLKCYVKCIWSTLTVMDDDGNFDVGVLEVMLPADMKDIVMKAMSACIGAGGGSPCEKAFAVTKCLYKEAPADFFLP
Readout: Kd (µM)
Unit µM implied. Number only.

Task: What value of Kd has been recorded for this entry: c1ccc(Nc2cccc3ccccc23)cc1 [1-NPN, N-phenyl-1-naphthylamine]
Output: 10.4

* * *

Measurement Target: SfurOBP11 (Sogatella furcifera, UniProt V5T6E3)
Experiment Notes: biochemical
Format: binding
Stated Conditions: ligand concentration 14, replicate 3
Readout: Fluorescence intensity, fluorescence competitive binding assay, OBP11
// return a plain number; no unit text

CCCCCCCCCCC :: 31391
CCCCCCCCCCCCO :: 20422
CCCCCCCCCCCCCCCC :: 21069

Task: What value of Fluorescence intensity, fluorescence competitive binding assay, OBP11 has been recorded for this entry: "C=C1CC/C=C(\C)CC[C@@H]2[C@@H]1CC2(C)C"
Output: 25924

Task: Next compound: "CCCCCC(C)=O"
Output: 20708

Task: Next compound: "CC(=O)/C=C/C1=C(C)CCCC1(C)C"
Output: 19615

Task: Next compound: "CCCCCCCCCCCCCCCCCC"
Output: 30415

Task: Next compound: "c1ccc2ccccc2c1"
Output: 27309

Task: Next compound: C=CC(C)(O)CCC=C(C)CCC=C(C)C (mixture of isomers)
Output: 21671

Task: Next compound: "CCCCCC=O"
Output: 20685
